// data source = patent US6548494B1

{"columns": ["compound", "melting point"],
 "data": [
  ["O=C1NCCn2c(SCc3ccccc3)nc3cccc1c32", "189 to 191 °C"],
  ["O=C1NCCn2c(-c3ccc(C4CCCCN4)cc3)nc3cccc1c32 (centres unmarked)", "263 to 265 °C"],
  ["CC(C)Cc1nc2cccc3c2n1CCNC3=O", "211 to 212 °C"],
  ["O=C1NCCn2c(-c3ccncc3)nc3cccc1c32", "269 °C (dec.)"],
  ["CN(C)Cc1ccc(-c2cc3cc(F)cc4c3n2CCNC4=O)cc1", "172 to 174 °C"],
  ["CC(=O)c1cn2c3c(cccc13)C(=O)NCC2", "285 to 287 °C"],
  ["O=C1NCCn2c(-c3ccc(-c4ccncc4)cc3)nc3cccc1c32", "370 to 372 °C (dec.)"],
  ["O=C1NCCn2c(-c3ccccc3Cl)nc3cccc1c32", "253 to 255 °C"],
  ["O=C1NCCn2c(-c3cccc(Oc4ccc(Cl)cc4)c3)nc3cccc1c32", "211 to 212 °C"],
  ["O=C1NCCn2c(-c3ccc(CN4CCCC4)cc3)cc3cccc1c32", "146 to 148 °C"],
  ["O=C1NCCn2c(-c3ccc(C4CCCN4)cc3)nc3cccc1c32 (centres unmarked)", "220 to 223 °C (dec.)"],
  ["S=C1NCCn2c(-c3ccccc3)nc3cccc1c32", "224 °C (dec.)"],
  ["O=C1NCCn2c(-c3ccc(-c4nn[nH]n4)cc3)nc3cccc1c32", "> 290 °C (dec.)"],
  ["NC(=O)c1c(-c2ccc(F)cc2)n2c3c(cccc13)C(=O)NCC2", "287 to 289 °C"],
  ["O=C1NCCn2c(-c3ccc(CNCC(F)(F)F)cc3)nc3cccc1c32", "221 to 223 °C"],
  ["O=C1NCCn2c(C(=O)N3CCOCC3)nc3cccc1c32", "271 to 274 °C (dec.)"],
  ["O=C1NCCn2c(-c3ccc(CCN4CCCC4)cc3)nc3cccc1c32", "> 201 °C (dec.)"],
  ["O=C1NCCn2c(C(F)(F)F)nc3cccc1c32", "277 to 281 °C (dec.)"],
  ["O=C1NCCn2c(CCc3ccccc3)cc3cccc1c32", "133 to 135 °C"],
  ["O=C1NCCn2c(-c3ccc(F)cc3)nc3cc(F)cc1c32", "284 to 287 °C"]
]}
